ΔTm: recorded values
Molecular target: CREB-binding protein/Histone acetyltransferase p300 (Homo sapiens, UniProt Q09472+Q92793)
Sequence (Q09472 whole entry, looked up): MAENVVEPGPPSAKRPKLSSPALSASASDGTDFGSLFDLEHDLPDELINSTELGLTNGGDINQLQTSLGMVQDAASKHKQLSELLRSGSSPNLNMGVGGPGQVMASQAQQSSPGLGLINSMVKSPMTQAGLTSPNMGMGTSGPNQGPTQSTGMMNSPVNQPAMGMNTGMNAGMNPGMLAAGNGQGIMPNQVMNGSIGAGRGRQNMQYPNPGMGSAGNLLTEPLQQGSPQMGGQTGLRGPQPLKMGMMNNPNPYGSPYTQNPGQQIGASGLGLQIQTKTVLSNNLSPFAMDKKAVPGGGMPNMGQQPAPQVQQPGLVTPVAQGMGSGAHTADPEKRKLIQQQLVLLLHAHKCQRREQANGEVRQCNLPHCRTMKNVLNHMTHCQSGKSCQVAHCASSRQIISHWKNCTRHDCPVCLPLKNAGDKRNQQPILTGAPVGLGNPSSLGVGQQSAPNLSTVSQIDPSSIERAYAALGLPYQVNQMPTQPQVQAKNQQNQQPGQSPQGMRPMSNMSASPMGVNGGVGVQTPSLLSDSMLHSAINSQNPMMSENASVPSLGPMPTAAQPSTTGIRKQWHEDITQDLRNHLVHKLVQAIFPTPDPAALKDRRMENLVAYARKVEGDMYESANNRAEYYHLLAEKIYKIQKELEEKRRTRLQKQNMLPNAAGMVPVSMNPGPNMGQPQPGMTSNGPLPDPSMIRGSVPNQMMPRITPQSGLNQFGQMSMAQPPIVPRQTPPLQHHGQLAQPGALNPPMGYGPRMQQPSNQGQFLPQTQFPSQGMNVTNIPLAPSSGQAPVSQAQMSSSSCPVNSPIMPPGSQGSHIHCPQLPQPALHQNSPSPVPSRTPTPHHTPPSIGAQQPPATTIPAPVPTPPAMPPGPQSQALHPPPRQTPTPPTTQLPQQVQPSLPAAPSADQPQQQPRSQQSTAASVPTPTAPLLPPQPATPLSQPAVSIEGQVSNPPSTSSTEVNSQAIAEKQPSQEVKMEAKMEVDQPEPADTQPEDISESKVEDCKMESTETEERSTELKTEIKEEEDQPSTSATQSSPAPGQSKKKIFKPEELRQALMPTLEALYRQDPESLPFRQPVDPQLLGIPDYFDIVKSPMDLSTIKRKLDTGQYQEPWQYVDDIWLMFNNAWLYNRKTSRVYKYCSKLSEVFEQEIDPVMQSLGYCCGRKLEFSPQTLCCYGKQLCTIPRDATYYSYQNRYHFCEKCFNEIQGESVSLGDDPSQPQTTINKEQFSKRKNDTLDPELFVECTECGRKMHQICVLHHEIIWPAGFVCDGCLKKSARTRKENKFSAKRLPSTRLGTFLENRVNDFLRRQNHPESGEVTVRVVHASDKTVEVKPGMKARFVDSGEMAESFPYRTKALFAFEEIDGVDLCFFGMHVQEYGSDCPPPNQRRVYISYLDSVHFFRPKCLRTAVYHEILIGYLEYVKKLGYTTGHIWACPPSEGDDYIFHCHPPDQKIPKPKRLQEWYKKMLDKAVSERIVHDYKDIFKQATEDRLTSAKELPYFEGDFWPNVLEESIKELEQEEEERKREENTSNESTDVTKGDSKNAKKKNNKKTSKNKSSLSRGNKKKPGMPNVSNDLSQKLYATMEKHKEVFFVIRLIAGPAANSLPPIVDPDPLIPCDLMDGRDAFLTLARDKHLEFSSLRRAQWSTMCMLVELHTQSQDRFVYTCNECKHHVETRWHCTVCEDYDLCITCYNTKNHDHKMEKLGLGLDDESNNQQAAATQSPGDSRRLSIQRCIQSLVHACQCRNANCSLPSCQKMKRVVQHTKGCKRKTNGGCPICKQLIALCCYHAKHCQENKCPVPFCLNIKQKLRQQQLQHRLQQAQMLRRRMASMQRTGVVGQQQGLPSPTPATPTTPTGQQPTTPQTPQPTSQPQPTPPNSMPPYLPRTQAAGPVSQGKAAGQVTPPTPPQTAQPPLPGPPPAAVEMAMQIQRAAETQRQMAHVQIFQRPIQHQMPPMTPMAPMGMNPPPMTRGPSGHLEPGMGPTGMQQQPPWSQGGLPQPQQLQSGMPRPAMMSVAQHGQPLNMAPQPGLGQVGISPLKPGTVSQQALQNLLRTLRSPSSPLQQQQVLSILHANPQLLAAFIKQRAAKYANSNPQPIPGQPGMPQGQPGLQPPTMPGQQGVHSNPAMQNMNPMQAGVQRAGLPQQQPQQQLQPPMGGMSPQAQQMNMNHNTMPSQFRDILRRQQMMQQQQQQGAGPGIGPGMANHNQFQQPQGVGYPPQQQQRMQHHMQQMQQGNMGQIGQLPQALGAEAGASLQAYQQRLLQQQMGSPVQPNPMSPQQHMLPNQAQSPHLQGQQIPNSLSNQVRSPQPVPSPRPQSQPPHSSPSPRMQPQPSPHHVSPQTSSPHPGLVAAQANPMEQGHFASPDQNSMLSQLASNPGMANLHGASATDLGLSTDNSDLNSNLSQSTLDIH
Sequence (Q92793 whole entry, looked up): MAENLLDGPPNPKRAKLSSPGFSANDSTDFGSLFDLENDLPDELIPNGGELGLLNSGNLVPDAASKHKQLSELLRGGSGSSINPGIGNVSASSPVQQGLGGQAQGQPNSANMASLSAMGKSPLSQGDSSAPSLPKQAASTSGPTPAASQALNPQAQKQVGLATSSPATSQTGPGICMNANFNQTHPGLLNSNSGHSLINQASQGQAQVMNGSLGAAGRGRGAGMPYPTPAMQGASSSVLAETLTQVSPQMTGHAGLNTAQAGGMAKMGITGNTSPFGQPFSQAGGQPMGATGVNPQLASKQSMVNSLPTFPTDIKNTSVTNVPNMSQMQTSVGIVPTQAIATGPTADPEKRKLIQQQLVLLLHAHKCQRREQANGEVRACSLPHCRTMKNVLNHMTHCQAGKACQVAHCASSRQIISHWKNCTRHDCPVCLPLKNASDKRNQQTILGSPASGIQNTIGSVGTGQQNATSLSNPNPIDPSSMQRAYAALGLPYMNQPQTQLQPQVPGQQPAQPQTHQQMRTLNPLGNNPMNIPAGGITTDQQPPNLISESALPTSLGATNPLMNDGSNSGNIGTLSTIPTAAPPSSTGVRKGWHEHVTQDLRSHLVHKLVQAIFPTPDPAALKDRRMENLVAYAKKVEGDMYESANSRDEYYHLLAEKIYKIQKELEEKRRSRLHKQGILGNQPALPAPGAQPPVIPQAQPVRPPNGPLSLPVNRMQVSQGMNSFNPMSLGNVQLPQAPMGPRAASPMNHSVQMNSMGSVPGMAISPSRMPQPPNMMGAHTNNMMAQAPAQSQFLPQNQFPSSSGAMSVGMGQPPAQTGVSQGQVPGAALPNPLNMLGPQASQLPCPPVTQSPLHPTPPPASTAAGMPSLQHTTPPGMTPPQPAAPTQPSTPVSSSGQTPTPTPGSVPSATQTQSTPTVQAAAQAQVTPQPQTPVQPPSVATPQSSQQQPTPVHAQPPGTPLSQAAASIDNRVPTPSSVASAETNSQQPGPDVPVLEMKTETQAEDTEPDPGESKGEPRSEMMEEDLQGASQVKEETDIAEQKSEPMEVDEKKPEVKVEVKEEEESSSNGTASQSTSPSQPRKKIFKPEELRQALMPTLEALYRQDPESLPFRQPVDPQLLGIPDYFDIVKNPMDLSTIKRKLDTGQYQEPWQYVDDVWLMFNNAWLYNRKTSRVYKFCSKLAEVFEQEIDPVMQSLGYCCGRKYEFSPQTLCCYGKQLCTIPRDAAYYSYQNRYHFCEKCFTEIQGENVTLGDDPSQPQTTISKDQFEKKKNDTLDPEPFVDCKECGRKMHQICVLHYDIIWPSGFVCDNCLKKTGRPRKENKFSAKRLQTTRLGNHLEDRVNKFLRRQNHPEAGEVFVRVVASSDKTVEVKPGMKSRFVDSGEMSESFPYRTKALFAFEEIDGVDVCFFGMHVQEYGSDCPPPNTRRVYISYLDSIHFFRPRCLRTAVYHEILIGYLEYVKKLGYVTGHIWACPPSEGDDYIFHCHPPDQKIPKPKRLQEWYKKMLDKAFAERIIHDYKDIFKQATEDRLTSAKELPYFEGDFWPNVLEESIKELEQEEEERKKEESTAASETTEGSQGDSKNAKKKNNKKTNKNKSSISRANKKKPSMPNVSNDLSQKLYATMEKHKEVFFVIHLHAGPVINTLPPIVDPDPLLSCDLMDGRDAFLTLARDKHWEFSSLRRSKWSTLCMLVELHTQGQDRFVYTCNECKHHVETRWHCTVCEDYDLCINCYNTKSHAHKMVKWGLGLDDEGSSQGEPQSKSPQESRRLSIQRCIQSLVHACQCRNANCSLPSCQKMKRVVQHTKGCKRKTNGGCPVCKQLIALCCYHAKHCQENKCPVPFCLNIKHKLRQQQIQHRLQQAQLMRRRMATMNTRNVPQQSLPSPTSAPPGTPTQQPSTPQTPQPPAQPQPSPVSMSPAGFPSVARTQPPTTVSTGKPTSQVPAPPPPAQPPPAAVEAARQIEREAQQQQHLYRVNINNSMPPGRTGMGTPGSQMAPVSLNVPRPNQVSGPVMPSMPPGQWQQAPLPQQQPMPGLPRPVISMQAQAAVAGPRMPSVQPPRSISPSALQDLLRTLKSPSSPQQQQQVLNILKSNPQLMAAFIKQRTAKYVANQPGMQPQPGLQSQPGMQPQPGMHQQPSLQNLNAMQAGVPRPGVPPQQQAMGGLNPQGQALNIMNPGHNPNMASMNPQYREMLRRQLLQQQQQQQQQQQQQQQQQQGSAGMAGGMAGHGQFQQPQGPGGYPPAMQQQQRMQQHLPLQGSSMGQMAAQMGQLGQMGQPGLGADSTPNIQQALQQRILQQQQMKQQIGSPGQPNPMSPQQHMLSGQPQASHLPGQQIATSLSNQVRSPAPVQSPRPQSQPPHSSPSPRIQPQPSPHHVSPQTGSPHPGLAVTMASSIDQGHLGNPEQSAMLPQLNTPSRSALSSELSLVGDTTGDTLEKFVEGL
Assay: Inhibition of human CBP/P300 expressed in Escherichia coli BL21(DE3)-R3 assessed as change in melting temperature at 10 uM by SYPRO orange dye-based differential scanning fluorimetry
Report as a plain number; the unit °C is understood.

COc1cccc(-c2cc3c(c(OCC4CCN(C)C4)c2)OCCN(C(=O)C2CC2)C3)c1 (stereo not given)	4.8
CCC(=O)N1CCOc2c(cc(-c3ccc(OC)c(OC)c3)cc2C(=O)O)C1	4.1
COc1cc(-c2ccc(F)c(F)c2)cc2c1OCCN(C(=O)C1CC1)C2	3.5
COc1cc(-c2nc(C)cnc2C)cc2c1OCCN(C(=O)C1CC1)C2	0.6
COc1ccc(-c2cc3c(c(OC)c2)OCCN(C(=O)N(C)C)C3)cc1Cl	0.2
COCC(=O)N1CCOc2c(cc(-c3cccc(OC)c3)cc2OC)C1	0.3
COc1ccc(-c2cc3c(c(OC)c2)OCCN(C(=O)C2CC2)C3)cc1Cl	4.4
COc1cccc(-c2cc3c(c(OCCN(C)C)c2)OCCN(C(=O)C2CC2)C3)c1	4.3

**Query** Entry Cc1ccc(-c2cc3c(c(OCC4CCCN(C)C4)c2)OCCN(C(=O)C2CC2)C3)s1 (stereo not given) needs its ΔTm filled in; supply it.
**Result** 3.3

**Query** Entry COc1cccc(-c2cc3c(c(OC4CCOC4)c2)OCCN(C(=O)C2CC2)C3)c1 (stereo not given) needs its ΔTm filled in; supply it.
**Result** 5.3

====

Molecular target: Bromodomain-containing protein 4 (Homo sapiens)
Test: Inhibition of human BRD4 bromodomain 1 expressed in Escherichia coli BL21(DE3)-R3-pRARE2 assessed as change in melting temperature at 10 uM by SYPRO orange dye-based differential scanning fluorimetry
Quantity: ΔTm (°C)
Report as a plain number; the unit °C is understood.

Solved cases (8 shown):
CCC(=O)N1CCOc2c(cc(-c3cc(Cl)ccc3OC)cc2OC)C1	0.2
COc1ccc(-c2cc3c(c(OC)c2)OCCN(C(=O)C2CC2)C3)cc1OC	3.2
CCC(=O)N1CCOc2c(cc(-c3cccc(Cl)c3)cc2OCC2CCCCO2)C1 (stereo unspecified)	-2
CCC(=O)N1CCOc2c(cc(-c3cc(OC)cc(OC)c3)cc2C(=O)NCCN(CC)CC)C1	0.4
COc1cccc(-c2cc3c(c(OC)c2)OCCN(C(C)=O)C3)c1	0.7
COc1ccc(-c2cc3c(c(OC)c2)OCCN(C(=O)C(F)(F)F)C3)cc1Cl	-0.1
COc1ccc(-c2cc3c(c(OC)c2)OCCN(C(=O)C2CC2)C3)cc1C=O	1.2
COc1cccc(-c2cc3c(c(OCCN(C)C)c2)OCCN(C(=O)C2CC2)C3)c1	0.7

**Query** Entry COc1ccc(-c2cc3c(c(OC)c2)OCCN(C(=O)C2CC2)C3)cc1Cl needs its ΔTm filled in; supply it.
**Result** 3.3

**Query** Entry O=C(C1CC1)N1CCOc2c(cc(-c3cccc(Cl)c3)cc2OCc2ccsc2)C1 needs its ΔTm filled in; supply it.
**Result** 0

====

Biological target: Bromodomain-containing protein 4 (Homo sapiens)
Assay: Inhibition of human BRD4 bromodomain 1 expressed in Escherichia coli BL21(DE3)-R3-pRARE2 assessed as change in melting temperature at 10 uM by SYPRO orange dye-based differential scanning fluorimetry
ΔTm: recorded values
Report as a plain number; the unit °C is understood.

Solved cases (4 shown):
CCC(=O)N1CCOc2c(cc(-c3cc(OC)cc(OC)c3)cc2C(=O)OC)C1	0.5
COc1cc(-c2c(C)noc2C)cc2c1OCCN(C(=O)C1CC1)C2	4.1
COc1ccccc1-c1cc2c(c(OC)c1)OCCN(C(=O)C1CCC1)C2	0.9
COc1cc(OC)cc(-c2cc3c(c(OC)c2)OCCN(C(=O)C2CC2)C3)c1	4.5

Proceeding to the next molecule to report its ΔTm.
**Query** Entry CCC(=O)N1CCOc2c(cc(-c3cc(OC)cc(OC)c3)cc2C(=O)N[C@@H]2CCCNC2)C1 needs its ΔTm filled in; supply it.
**Result** 0.6
